Test system: JIMT-1
Test: Antiproliferative activity against human JIMT-1 cells after 72 hrs by SRB assay
Format: functional, cell-based
Conditions: JIMT-1, 72 h
Catalogue of IC50 readings, one per entry.
Your answer should be a plain number; it is taken to be in nM.

COc1ccc(-c2cc(Nc3ccnc(N4C5CCC4COC5)n3)on2)cc1    160
COc1ccc(-c2cc(Nc3ccnc(N4C[C@@H](C)O[C@@H](C)C4)n3)on2)cc1    230
COc1ccc(-c2cc(Nc3ccnc(N4C[C@H]5C[C@@H]4CO5)n3)on2)cc1    480
CC(C)c1ccc(-c2cc(Nc3ccnc(N4CCOCC4)n3)on2)cc1    3610
COc1ccc(-c2cc(Nc3nc(N4CCC(F)CC4)ncc3F)on2)cc1    540

Q. Query (molecule): Cc1ccc(-c2cc(Nc3ccnc(N4CCOCC4)n3)on2)cc1 ; field requested: IC50
A. 640

Q. Query (molecule): c1cc(Nc2cc(-c3ccc4c(c3)OCO4)no2)nc(N2CCOCC2)n1 ; field requested: IC50
A. 870

Q. Query (molecule): COc1ccc(-c2cc(Nc3ccnc(N4CCOCC4)n3)on2)cc1Cl ; field requested: IC50
A. 480

Q. Query (molecule): CN(C)c1ccc(-c2cc(Nc3ccnc(N4CCC(F)CC4)n3)on2)cc1 ; field requested: IC50
A. 157

---

Test system: JIMT-1
Test: Antiproliferative activity against human JIMT-1 cells after 72 hrs by SRB assay
Format: functional, cell-based
Conditions: JIMT-1, 72 h
Please respond with T when measured IC50 is strictly beneath 400 nM, and with F in all other cases.

COc1ccc(-c2cc(Nc3ccnc(N4CCC(F)CC4)n3)on2)cc1F    T

Q. State whether 400 nM exceeds IC50 recorded for COc1ccc(-c2cc(Nc3ccnc(N4CCCCC4)n3)on2)cc1 .
A. T

Q. State whether 400 nM exceeds IC50 recorded for COc1ccc(-c2cc(Nc3ccnc(N4CCC(F)(F)CC4)n3)on2)cc1 .
A. T

Q. State whether 400 nM exceeds IC50 recorded for COc1ccc(-c2cc(Nc3ccnc(N4C[C@@H]5C[C@H]4CO5)n3)on2)cc1 .
A. F

Q. State whether 400 nM exceeds IC50 recorded for CCOc1ccc(-c2cc(Nc3ccnc(N4CCOCC4)n3)on2)cc1 .
A. F
